Hello, the source for this data is PubChem BioAssay AID1014, in case you need it.

Form field: inhibition of percent positive cells (one value per entry).
Assay: blockers of bacterial quorum-sensing reporter fluorescence – flow cytometry, SAR analogs, SAR follow-up (AID 1014);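 also: Staphylococcus aureus RN6390 with RNAIII-GFP reporter stimulated by AIP; bacteria incubated with compound for 3 hours at 37 °C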
Settings: at 20 µM, stronger effect = higher value; measured here: percent reporter-positive cells

compound | inhibition of percent positive cells
CC(=O)c1cc2c(O)c(O)ccc2o1 | -0.1%
O=C(O)c1ccccc1NC(c1ccccc1)c1ccc(Cl)cc1 (stereo not drawn) | 0.2%

Input: Answer with the recorded inhibition of percent positive cells of CCOC(=O)c1c(C)oc2cc(Br)c(O)c(C=O)c12 only.
Output: 2.9%

Input: Answer with the recorded inhibition of percent positive cells of CCOC(=O)c1cnc2ccc(OC)cc2c1Nc1ccccc1C(=O)O only.
Output: -1.3%

Input: Answer with the recorded inhibition of percent positive cells of O=C(NCCN1CCN(c2ccccc2)CC1)c1cccc(Cl)c1 only.
Output: 0%
